Form field: composite z-score (one value per entry).
Assay: anti-His antibody binders, primary screen, artefact control for SMM control protein annotation, biochemical, small-molecule microarray, 635 nm fluorescence (AID 1128);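 further: score merges feature fluorescence with signal-to-noise for each printed compound spot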
Details: anti-His Alexa647 antibody binding, higher = more signal
measurementType: composite z-score

compound | measValue
CCOC(=O)C[C@H]1[C@H](OC(=O)c2cc3ccccc3oc2=O)[C@@H](NC(=O)c2ccccc2)c2cc(OCCCO)ccc2N1C(=O)Cc1ccc(OC)cc1 | -0.657
COc1ccc(C#Cc2ccc3c(c2)[C@]2(C(=O)N3)[C@H](c3ccc(O)cc3)N3[C@H](c4ccccc4)[C@H](c4ccccc4)OC(=O)[C@H]3[C@@H]2C(N)=O)cc1 | 2.17
O=C(O)[C@H]1C[C@H]2C(=O)N[C@@H](Cc3ccccc3)C(=O)N2[C@H]1c1ccc(O)cc1 | 1.19
C=CCC(OC(C)=O)[C@@H]1[C@@H](N(Cc2cccc3ccccc23)C(=O)Cc2ccc(OC)cc2)c2cc(OCCCO)ccc2N1C(=O)Cc1ccc(OC)cc1 (some centres not stated) | -0.28
C=CCN1C(=O)[C@@]2(O[C@@H](CCO)[C@H]([Si](C)(C)c3ccc(OC)cc3)[C@H]2C)c2cc(N(C=O)c3ccccc3)ccc21 | 1.03
O=C(N1CCCCC1)[C@@]1(Cc2ccccc2)N=C(c2ccc(OCCCO)cc2)O[C@H]1c1ccccc1 | 2.02
O=C1O[C@H](c2ccccc2)[C@H](c2ccccc2)N2[C@H]1[C@@H](C(=O)Nc1nc3ccccc3s1)[C@]1(C(=O)Nc3ccc(C#CCCO)cc31)[C@H]2c1ccccc1OCCO | 1.42
